target_entity: JAK1 (Homo sapiens (Human), UniProt P23458)
Sequence (P23458 whole entry): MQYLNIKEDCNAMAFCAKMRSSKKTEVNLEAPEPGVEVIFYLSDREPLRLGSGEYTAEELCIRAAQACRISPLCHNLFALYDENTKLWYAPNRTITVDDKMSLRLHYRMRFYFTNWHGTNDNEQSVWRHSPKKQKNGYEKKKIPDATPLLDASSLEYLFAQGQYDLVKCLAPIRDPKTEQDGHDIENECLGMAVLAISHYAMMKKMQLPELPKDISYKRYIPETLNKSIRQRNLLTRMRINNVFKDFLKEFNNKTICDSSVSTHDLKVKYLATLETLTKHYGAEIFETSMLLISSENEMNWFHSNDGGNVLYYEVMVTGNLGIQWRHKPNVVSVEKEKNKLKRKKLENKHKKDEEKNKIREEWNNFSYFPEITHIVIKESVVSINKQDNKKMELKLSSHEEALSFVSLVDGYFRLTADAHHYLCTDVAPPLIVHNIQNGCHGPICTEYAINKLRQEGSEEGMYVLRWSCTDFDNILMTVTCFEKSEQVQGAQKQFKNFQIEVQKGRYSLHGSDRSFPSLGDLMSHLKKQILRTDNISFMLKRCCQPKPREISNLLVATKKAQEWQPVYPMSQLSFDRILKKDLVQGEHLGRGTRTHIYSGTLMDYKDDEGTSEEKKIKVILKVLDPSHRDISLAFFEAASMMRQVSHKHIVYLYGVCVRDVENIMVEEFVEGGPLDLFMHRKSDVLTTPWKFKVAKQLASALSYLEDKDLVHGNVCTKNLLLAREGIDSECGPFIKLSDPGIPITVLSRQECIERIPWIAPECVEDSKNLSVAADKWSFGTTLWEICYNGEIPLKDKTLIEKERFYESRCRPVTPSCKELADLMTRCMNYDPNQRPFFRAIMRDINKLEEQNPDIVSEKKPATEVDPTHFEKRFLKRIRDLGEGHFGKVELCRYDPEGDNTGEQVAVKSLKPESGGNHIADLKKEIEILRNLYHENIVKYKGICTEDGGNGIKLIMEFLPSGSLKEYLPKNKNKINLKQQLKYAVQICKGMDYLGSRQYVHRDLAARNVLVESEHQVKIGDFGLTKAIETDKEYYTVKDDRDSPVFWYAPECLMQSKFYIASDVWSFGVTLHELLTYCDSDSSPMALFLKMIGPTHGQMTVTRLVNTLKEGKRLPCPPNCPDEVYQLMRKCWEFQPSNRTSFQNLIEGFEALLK
protocol: Analysis of JAK1 activity inhibition ability (ADP-Glo Kinase Assay)
Assay type: biochemical
particulars: JAK1 enzyme, ADP-Glo luminescence, ATP 250 uM, IRS-itide substrate, 30° C. 40 minutes; read-out: IC50
For each of the compounds below, state its IC50.

Example entries begin here.
compound=N#CC1CCN(C(=O)C(F)(F)c2ccc(-c3cc(NC(=O)C4CC4)nc4[nH]ccc34)cc2)CC1 result_value="20 to 200 nM"
compound="CCNC(=S)N1C2CCC1CC(c1cc(NC(=O)C3CC3)nc3[nH]ccc13)C2 (stereo not shown)" result_value="20 to 200 nM"
compound="CCC(C#N)C(=O)N1CC=C(c2cc(NC(=O)C3CC3)nc3[nH]ccc23)CC1 (stereo not shown)" result_value="20 to 200 nM"

Task item: Identify IC50 associated with the compound `CCc1cc(NS(=O)(=O)CC2(C#N)CC2)ccc1-c1cc(NC(=O)C2CC2)nc2[nH]ccc12`
Reply: < 20 nM
